biological target: PRMT5-MEP50 enzyme (Homo sapiens); construct: One virus expresses full length human PRMT5 with Flag-tag at N-terminus; assay: In vitro assay (Assay 1): PRMT5-MEP50 high throughput mass spectrometer assay, inhibition of SAH formation; format: biochemical; conditions: individual measurements shown, read-out: pIC50 Assay 1 (converted)
Sequence (O14744 whole entry): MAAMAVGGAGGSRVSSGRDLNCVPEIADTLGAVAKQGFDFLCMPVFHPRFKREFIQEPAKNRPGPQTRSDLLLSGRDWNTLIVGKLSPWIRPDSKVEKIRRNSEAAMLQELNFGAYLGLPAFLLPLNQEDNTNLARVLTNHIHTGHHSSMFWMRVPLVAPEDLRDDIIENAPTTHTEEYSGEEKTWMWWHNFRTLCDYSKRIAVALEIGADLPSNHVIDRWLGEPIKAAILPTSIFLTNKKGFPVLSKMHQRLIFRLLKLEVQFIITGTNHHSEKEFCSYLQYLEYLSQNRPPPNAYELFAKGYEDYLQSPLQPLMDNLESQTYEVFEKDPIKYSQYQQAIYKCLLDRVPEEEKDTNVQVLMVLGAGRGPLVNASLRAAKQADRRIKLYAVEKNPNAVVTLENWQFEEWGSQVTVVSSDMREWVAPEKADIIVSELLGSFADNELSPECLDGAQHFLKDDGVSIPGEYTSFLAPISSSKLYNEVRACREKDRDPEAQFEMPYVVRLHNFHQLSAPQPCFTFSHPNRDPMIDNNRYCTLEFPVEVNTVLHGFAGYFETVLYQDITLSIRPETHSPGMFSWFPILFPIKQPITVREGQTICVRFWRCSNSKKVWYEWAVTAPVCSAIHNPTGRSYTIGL
Sequence (Q9BQA1 whole entry partner): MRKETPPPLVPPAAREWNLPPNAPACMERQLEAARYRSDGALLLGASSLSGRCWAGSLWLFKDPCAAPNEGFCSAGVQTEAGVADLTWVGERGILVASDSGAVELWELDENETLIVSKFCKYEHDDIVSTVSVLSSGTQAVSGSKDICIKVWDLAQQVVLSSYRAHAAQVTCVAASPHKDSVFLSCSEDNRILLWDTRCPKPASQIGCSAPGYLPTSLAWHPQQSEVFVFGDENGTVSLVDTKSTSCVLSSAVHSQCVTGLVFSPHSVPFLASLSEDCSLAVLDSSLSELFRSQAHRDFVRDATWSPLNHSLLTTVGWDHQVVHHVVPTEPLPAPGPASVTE
Endpoint: IC50 (nM)

Nc1ncnn2c([C@@H]3O[C@H](C(=O)N4CCCC45CCNCC5)[C@@H](O)[C@H]3O)ccc12    380
NC[C@H]1CC(F)(F)CN1C[C@H]1O[C@@H](n2ccc3c(N)ncnc32)[C@H](O)[C@@H]1O [Compound 73b]    209
NCC1CCC(F)(F)CN1C[C@H]1O[C@@H](n2ccc3c(N)ncnc32)[C@H](O)[C@@H]1O (stereo partly shown)    44.7
Nc1ncnc2c1ccn2[C@@H]1O[C@H](CN2CCCC3(COCCN3)C2)[C@@H](O)[C@H]1O (stereo partly shown)    170
Nc1ncnc2c1ccn2[C@@H]1O[C@H](CN2CCOCC23CCNCC3)[C@@H](O)[C@H]1O    25.7
NC[C@@H]1COCCN1C[C@H]1O[C@@H](n2ccc3c(N)ncnc32)[C@H](O)[C@@H]1O    53.7

[A] NC[C@@H]1CC(F)(F)CN1C[C@H]1O[C@@H](n2ccc3c(N)cccc32)[C@H](O)[C@@H]1O [Compound 71b]
[B] CN1CCCC2(C1)CN(C[C@H]1O[C@@H](n3cnc4c(N)ncnc43)[C@H](O)[C@@H]1O)C2
-- ask Could you tell me which of A and B has the lower IC50 reading? Lab note: record the label of whichever item you select.
-- reply A
(A: 51.3 nM, B: 67600 nM)

[1] CN1CCC2(CCCN2C[C@H]2O[C@@H](n3ccc4c(NCc5ccc(F)cc5)ncnc43)[C@H](O)[C@@H]2O)CC1
[2] CN1CCC2(CC1)CC(F)(F)CN2C[C@H]1O[C@@H](n2ccc3c(N)ncnc32)[C@H](O)[C@@H]1O
[3] Nc1ncnc2c1ccn2[C@@H]1O[C@H](CN2CCCC3(CCNCC3)C2)[C@@H](O)[C@H]1O
-- ask Sort (3 molecules) by IC50: min first. // list labels; follow requested order
-- reply 2, 3, 1

Values from patent US10898504B2
